Biological target: UniProtKB P42680
Test: Biochemical kinase selectivity: IC50 determination of Tec
Conditions: ratio of IC50 values
Rule: Fold of Tec/Btk of 60 fold or more gives true (1); anything lower gives false (0).

Worked examples follow.
compound	measured.on	category.label
C=CC(=O)N1CCC(C2CCNc3c(C(N)=O)c(-c4cc(OC)c(C5CC5)c(OCC)c4)nn32)CC1 (centres unmarked)	UniProtKB P42680	true (1)
C=CC(=O)N1CCC(C2CCNc3c(C(N)=O)c(-c4cc(Br)c(C)c(Br)c4)nn32)CC1 (centres unmarked)	UniProtKB P42680	true (1)
C=CC(=O)N1CC(C2CCNc3c(C(N)=O)c(-c4cc(OC)c(C)c(OC)c4)nn32)C1 (centres unmarked)	UniProtKB P42680	false (0)

From here, focus on the item given below.
Request: In plain terms: is recorded Fold of Tec/Btk at least 60 fold for C=CC(=O)N1CCC(C2CCNc3c(C(N)=O)c(-c4cc(OC)c(CCc5ccccc5)c(OC)c4)nn32)CC1 (centres unmarked) ?
Response: false (0)

* * *

Experiment: Rat pharmacokinetic study
Format: in vivo, Male Sprague Dawley rats
Details: male, Sprague Dawley, plasma; rat, IV 1 mg·kg^−1 / PO 5 mg·kg^−1 study; route not given
observed.property: AUC(0-inf) (ng·h/mL)
Dear colleague, please return just the value in ng·h/mL, with no unit written.

compound	observed.property	measurement
C=CC(=O)Nc1ccccc1C1CCNc2c(C(N)=O)c(-c3cc(OC)c(OC)c(OC)c3)nn21 (centres unmarked) [167^#]	AUC(0-inf)	65.1

Please find the next compound below.
Request: Query (compound): C=CC(=O)N1CCC(C2CCNc3c(C(N)=O)c(-c4cc(OC)c(C5CC5)c(OC)c4)nn32)CC1 (single isomer, unassigned) [Example A2a] ; field requested: AUC(0-inf)
Response: 1710

* * *

Target: Tec (Homo sapiens)
Test: Biochemical kinase selectivity: IC50 determination of Tec
Conditions: ratio of IC50 values
// reported Fold of Tec/Btk per item
Dear colleague, please return just the value in fold, with no unit written.

Would you please look over these solved cases?
molecule	Fold of Tec/Btk (fold)
C=CC(=O)N1CCC(C2CCNc3c(C(N)=O)c(-c4cc(C)c(Br)c(C)c4)nn32)CC1 (stereo not drawn) [Example A20]	107
C=CC(=O)N1CCC(C2CCNc3c(C(N)=O)c(-c4cc(Cl)c(C)c(Cl)c4)nn32)CC1 (stereo not drawn) [Example A7]	62
C=CC(=O)N1CCC(C2CCNc3c(C(N)=O)c(-c4cc(OC)c(C(C)c5ccccc5)c(OC)c4)nn32)CC1 (stereo not drawn) [Example A44]	7.1
C=CC(=O)N1CCC(C2CCNc3c(C(N)=O)c(-c4ccccc4)nn32)CC1 (stereo not drawn) [Example 144, reference compound]	3.5
C=CC(=O)N1CCC(C2CCNc3c(C(N)=O)c(-c4cc(OC)c(-c5ccco5)c(OC)c4)nn32)CC1 (stereo not drawn) [Example A19]	63.2
C=CC(=O)N1CCC(C2CCNc3c(C(N)=O)c(-c4cc(OC)c(C5CCCCC5)c(OC)c4)nn32)CC1 (stereo not drawn) [Example A39]	15

Request: Query (molecule): C=CC(=O)N1CCC(C2CCNc3c(C(N)=O)c(-c4cc(OC)c(C5CC5)c(OC(C)C)c4)nn32)CC1 (stereo not drawn) [Example A45] ; field requested: Fold of Tec/Btk
Response: 82

Request: Query (molecule): C=CC(=O)N1CCC(C2CCNc3c(C(N)=O)c(-c4cc(Cl)c(C5CC5)c(OC)c4)nn32)CC1 (stereo not drawn) [Example A36] ; field requested: Fold of Tec/Btk
Response: 125

Request: Query (molecule): C=CC(=O)N1CC2CNc3c(C(N)=O)c(-c4cc(OC)c(C)c(OC)c4)nn3C2C1 (stereo not drawn) [Example C1] ; field requested: Fold of Tec/Btk
Response: 112

Request: Query (molecule): C#CC(=O)N1CCC(C2CCNc3c(C(N)=O)c(-c4cc(OC)c(C)c(OC)c4)nn32)CC1 (stereo not drawn) [Example A50] ; field requested: Fold of Tec/Btk
Response: 9.4

Request: Query (molecule): C=CC(=O)N1CCC(C2CCNc3c(C(N)=O)c(-c4cc(OC)c(-c5ccsc5)c(OC)c4)nn32)CC1 (stereo not drawn) [Example A28] ; field requested: Fold of Tec/Btk
Response: 23

Request: Query (molecule): C=CC(=O)N1CCC(C2CCNc3c(C(N)=O)c(-c4cc(OC)c(/C=C/c5ccccc5)c(OC)c4)nn32)CC1 (stereo not drawn) [Example A41] ; field requested: Fold of Tec/Btk
Response: 31

* * *

// reported IC50 per item
Target: Btk kinase (aa2-659, Carna Biosciences) (Homo sapiens, UniProt Q06187)
Construct: purchased Carna Biosciences
Sequence (Q06187 2-659): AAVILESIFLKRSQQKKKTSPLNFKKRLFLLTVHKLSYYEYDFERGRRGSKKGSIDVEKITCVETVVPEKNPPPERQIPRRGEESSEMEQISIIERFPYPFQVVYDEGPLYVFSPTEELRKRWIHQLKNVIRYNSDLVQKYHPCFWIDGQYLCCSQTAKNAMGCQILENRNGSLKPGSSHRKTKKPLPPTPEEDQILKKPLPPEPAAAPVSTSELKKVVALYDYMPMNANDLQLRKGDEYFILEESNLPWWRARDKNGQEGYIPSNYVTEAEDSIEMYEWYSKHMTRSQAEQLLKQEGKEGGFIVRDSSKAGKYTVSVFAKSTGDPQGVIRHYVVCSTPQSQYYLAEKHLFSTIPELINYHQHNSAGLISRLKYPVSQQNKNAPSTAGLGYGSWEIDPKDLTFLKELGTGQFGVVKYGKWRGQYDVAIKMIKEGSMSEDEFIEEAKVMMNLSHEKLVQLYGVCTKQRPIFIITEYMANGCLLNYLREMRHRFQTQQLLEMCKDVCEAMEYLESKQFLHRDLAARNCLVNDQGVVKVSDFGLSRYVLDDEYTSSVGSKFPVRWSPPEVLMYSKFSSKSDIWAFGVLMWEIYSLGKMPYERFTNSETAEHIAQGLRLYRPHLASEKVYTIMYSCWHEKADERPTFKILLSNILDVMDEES
Assay: Btk kinase enzymatic assay (TR-FRET)
Assay type: biochemical
Conditions: TR-FRET, 30 μM ATP, compound incubated with kinase 60 minutes
Dear colleague, please return just the value in nM, with no unit written.

compound	IC50, nM
C=CC(=O)N1CC2CNc3c(C(N)=O)c(-c4cc(OC)c(OC)c(OC)c4)nn3C2C1 (stereo not shown)	34

Request: Query (compound): C=CC(=O)N1CCC(C2CCNc3c(C(N)=O)c(-c4cc(OC)c(C(F)(F)F)c(OC)c4)nn32)CC1 (stereo not shown) ; field requested: IC50
Response: 2.8

Request: Query (compound): C=CC(=O)N1CC2(CC(C3CCNc4c(C(N)=O)c(-c5cc(OC)c(C)c(OC)c5)nn43)C2)C1 (stereo not shown) ; field requested: IC50
Response: 35

Request: Query (compound): C=CC(=O)N1CCC(C2CCNc3c(C(N)=O)c(-c4cc(OC)c(-c5ccccc5)c(OC)c4)nn32)CC1 (stereo not shown) ; field requested: IC50
Response: 51

* * *

Molecular target: EGFR (Homo sapiens, UniProt P00533)
Sequence (P00533 25-1210): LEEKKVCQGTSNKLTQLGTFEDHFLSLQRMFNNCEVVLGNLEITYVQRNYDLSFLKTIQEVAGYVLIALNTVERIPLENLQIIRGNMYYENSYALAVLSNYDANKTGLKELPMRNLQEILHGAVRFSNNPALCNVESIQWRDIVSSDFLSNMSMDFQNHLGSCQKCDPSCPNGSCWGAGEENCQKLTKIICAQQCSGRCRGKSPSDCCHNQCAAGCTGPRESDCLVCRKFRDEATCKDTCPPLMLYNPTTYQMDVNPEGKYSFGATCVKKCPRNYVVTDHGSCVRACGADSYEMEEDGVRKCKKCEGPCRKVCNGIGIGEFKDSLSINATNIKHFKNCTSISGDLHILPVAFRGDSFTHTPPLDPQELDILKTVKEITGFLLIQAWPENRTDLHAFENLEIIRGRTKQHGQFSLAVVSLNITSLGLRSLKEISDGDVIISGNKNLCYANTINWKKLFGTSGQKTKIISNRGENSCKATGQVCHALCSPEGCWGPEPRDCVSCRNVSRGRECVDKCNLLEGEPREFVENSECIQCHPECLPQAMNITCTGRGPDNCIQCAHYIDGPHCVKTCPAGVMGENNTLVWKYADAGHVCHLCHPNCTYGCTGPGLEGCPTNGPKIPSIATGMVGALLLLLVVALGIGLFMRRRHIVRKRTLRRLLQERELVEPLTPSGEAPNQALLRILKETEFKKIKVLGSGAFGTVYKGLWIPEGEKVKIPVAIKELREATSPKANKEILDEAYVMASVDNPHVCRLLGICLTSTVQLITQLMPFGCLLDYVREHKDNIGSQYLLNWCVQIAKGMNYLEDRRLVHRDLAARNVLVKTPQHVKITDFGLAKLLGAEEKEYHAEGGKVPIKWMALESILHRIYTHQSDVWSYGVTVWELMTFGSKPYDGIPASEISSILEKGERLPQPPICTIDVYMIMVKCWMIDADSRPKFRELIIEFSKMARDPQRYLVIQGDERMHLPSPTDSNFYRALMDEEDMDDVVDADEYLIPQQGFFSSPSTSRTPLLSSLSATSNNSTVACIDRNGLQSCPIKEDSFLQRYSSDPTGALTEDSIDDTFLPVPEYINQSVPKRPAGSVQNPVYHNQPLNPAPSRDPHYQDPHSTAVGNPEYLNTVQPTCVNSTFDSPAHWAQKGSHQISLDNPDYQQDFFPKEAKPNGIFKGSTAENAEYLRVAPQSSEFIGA
Assay: Biochemical kinase selectivity: IC50 determination of EGFR
Conditions: TR-FRET, 20 μM ATP
Label Condition met when IC50 is strictly below 2000 nM; otherwise label Condition not met.

Worked examples follow.
compound	measured.on	category.label
C#CC(=O)N1CCC(C2CCNc3c(C(N)=O)c(-c4cc(OC)c(C)c(OC)c4)nn32)CC1 (centres unmarked)	EGFR (Homo sapiens, UniProt P00533)	Condition met
C=CC(=O)N1CCC(C2CCNc3c(C(N)=O)c(-c4cc(Br)c(C)c(Br)c4)nn32)CC1 (centres unmarked)	EGFR (Homo sapiens, UniProt P00533)	Condition not met
C=CC(=O)Nc1ccccc1C1CCNc2c(C(N)=O)c(-c3cc(OC)c(OC)c(OC)c3)nn21 (centres unmarked)	EGFR (Homo sapiens, UniProt P00533)	Condition met

From here, focus on the item given below.
Request: Is IC50 strictly under 2000 nM for the entry C=CC(=O)N1CCC(C2CCNc3c(C(N)=O)c(-c4cc(OC)c(C(C)O)c(OC)c4)nn32)CC1 (centres unmarked) ?
Response: Condition not met

* * *

Biological target: EGFR (Homo sapiens, UniProt P00533)
Assay: Biochemical kinase selectivity: IC50 determination of EGFR
Settings: TR-FRET, 20 μM ATP
Label 1.0 when IC50 is strictly below 1000 nM; otherwise label 0.0.

Worked examples follow.
compound	category.label
C=CC(=O)N1CCC(C2CCNc3c(C(N)=O)c(-c4cc(OC)c(C(F)(F)F)c(OC)c4)nn32)CC1 (stereo not shown)	0.0
C=CC(=O)N1CCC(C2CCNc3c(C(N)=O)c(-c4cc(OC)c(C(C)c5ccccc5)c(OC)c4)nn32)CC1 (stereo not shown)	0.0
C=CC(=O)N1CCC(C2CCNc3c(C(N)=O)c(-c4cc(Cl)c(C)c(OC)c4)nn32)CC1 (stereo not shown)	0.0
C=CC(=O)N1CCC(C2CCNc3c(C(N)=O)c(-c4cc(C)c(Br)c(C)c4)nn32)CC1 (stereo not shown)	1.0
C=CC(=O)N1CCC(C2CCNc3c(C(N)=O)c(-c4ccc(C)c(OC)c4)nn32)CC1 (stereo not shown) [Example 174, reference compound]	1.0
C=CC(=O)N1CC(C2CCNc3c(C(N)=O)c(-c4cc(OC)c(Br)c(OC)c4)nn32)C1 (stereo not shown)	0.0

From here, focus on the item given below.
Request: Is IC50 strictly under 1000 nM for the entry C=CC(=O)Nc1ccccc1C1CCNc2c(C(N)=O)c(-c3cc(Cl)c(OC)c(Cl)c3)nn21 (stereo not shown) ?
Response: 1.0

* * *

// reported Fold of Tec/Btk per item
Target: Tec (Homo sapiens, UniProt P42680)
Sequence (P42680 whole entry): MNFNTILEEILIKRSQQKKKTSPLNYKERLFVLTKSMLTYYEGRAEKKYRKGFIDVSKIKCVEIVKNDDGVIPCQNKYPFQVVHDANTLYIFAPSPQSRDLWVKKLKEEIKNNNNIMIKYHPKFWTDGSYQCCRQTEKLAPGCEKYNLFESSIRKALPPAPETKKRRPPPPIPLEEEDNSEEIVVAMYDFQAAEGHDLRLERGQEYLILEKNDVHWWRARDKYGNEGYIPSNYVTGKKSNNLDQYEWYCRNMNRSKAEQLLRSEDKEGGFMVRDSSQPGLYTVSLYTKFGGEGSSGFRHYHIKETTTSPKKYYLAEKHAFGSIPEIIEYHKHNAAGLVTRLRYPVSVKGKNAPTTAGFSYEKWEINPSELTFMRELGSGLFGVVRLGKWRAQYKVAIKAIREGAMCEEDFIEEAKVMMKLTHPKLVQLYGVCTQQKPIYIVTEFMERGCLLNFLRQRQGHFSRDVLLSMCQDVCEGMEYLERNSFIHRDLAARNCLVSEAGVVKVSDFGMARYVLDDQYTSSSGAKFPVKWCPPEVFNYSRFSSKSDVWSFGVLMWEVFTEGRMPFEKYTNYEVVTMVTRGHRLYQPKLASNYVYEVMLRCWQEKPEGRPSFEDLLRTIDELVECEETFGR
Experiment: Biochemical kinase selectivity: IC50 determination of Tec
Settings: ratio of IC50 values
Dear colleague, please return just the value in fold, with no unit written.

compound	measured.on	uom	Fold of Tec/Btk
C=CC(=O)N1CCC(C2CCNc3c(C(N)=O)c(-c4ccc(C)c(OC)c4)nn32)CC1 (stereo not shown) [Example 174, reference compound]	Tec (Homo sapiens, UniProt P42680)	fold	13

Request: For the record C=CC(=O)N1CCC(C2CCNc3c(C(N)=O)c(-c4cc(OC)c(C(C)O)c(OC)c4)nn32)CC1 (stereo not shown) , what value of Fold of Tec/Btk is listed for Tec (Homo sapiens, UniProt P42680)?
Response: 165

Request: For the record C=CC(=O)N1CCC(C2CCNc3c(C(N)=O)c(-c4cc(OC)c(C(=C)c5ccccc5)c(OC)c4)nn32)CC1 (stereo not shown) , what value of Fold of Tec/Btk is listed for Tec (Homo sapiens, UniProt P42680)?
Response: 5.7

Where do these numbers come from? They come from patent US20220298163A1.
